Listing: EC50 of selected binders
# test target: T1, Human CD137 displayed on yeast cells (human, UniProt Q07011 24-186, limits assumed)
# T1 construct: Yeast cells displaying human CD137, stained with serial dilutions of antibody; also called human CD137 on the cell surface
# procedure details: flow cytometry on yeast cells displaying human CD137; column headed EC50 / KD (nM)
Output spec: scalar in nM, unitless text.

// worked examples, EC50 included
TY21242 (antibody, V domains shown, Anti-human-CD137 antibody; the isotype of the parent is not restated; also called parental antibody TY21242; parental CD137 antibody) VH: EVQLVESGGGLVQPGGSLRLSCAASGFSLSTGGVGVGWIRQAPGKGLEWLALIDWADDKYYSPSLKSRLTISRDNSKNTLYLQLNSLRAEDTAVYYCARGGSDTVIGDWFAYWGQGTLVTVSS VL: DIQLTQSPSSLSASVGDRVTITCRASQSIGSYLAWYQQKPGKAPKLLIYDASNLETGVPSRFSGSGSGTDFTLTISSLQPEDFATYYCQQGYYLWTFGQGTKVEIK ... 0.28
TY22594 (antibody, V domains shown, Full IgG4 expressed in mammalian cells, uncleaved) VH: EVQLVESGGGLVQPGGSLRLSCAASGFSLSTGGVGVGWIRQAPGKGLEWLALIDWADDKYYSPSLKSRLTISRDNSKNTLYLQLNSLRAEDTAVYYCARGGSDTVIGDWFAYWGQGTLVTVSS VL: EVGSYDTDYDFCPILRHRCDSSGRSAGGGGSPLGLAGSGGSDIQLTQSPSSLSASVGDRVTITCRASQSIGSYLAWYQQKPGKAPKLLIYDASNLETGVPSRFSGSGSGTDFTLTISSLQPEDFATYYCQQGYYLWTFGQGTKVEIK ... 23.6

--- query ---
# input Request the reported EC50 associated with TY22595 (antibody, V domains shown, Full IgG4 expressed in mammalian cells, uncleaved) VH: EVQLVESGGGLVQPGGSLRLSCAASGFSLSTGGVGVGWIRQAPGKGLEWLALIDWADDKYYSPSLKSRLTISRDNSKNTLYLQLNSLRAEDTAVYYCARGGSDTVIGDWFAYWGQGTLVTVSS VL: EVGSYNDYNYHCKWRPSRCHNSGRSAGGGGSPLGLAGSGGSDIQLTQSPSSLSASVGDRVTITCRASQSIGSYLAWYQQKPGKAPKLLIYDASNLETGVPSRFSGSGSGTDFTLTISSLQPEDFATYYCQQGYYLWTFGQGTKVEIK
# output 107
